Reference source: PubChem BioAssay (NCI)

# Test system: SNB-19 CNS
# ASSAY_DETAILS: NCI-60 one-dose screen, 48 h (100 = growth as untreated, 0 = no growth, -100 = all killed)
# MEASUREMENT_CONTEXT: 10 µM unless noted
About 83,000 compounds went through this panel and 20% of them were active in at least one assay; those are over-represented in the sample as a whole.
Recorded growth values for a group of compounds are listed next.
Numeric answer only, unit % assumed.

>  <COMPOUND>
N#Cc1c(-c2ccc(F)cc2)nc(N/N=C/c2cccc(O)c2)nc1N1CCOCC1

>  <growth, %>
96.1

$$$$
>  <COMPOUND>
COc1ccccc1-c1ccc2nc(NC(=O)Nc3cc(C(F)(F)F)cc(C(F)(F)F)c3)sc2c1

>  <growth, %>
25.1

$$$$
>  <COMPOUND>
O=c1nc(-c2ccccc2)c2cc(-c3ccc(N4CCCC4)nc3)ccc2[nH]1

>  <growth, %>
66.4

$$$$
>  <COMPOUND>
COC(=O)/C=C/c1cc(OC(C)=O)c2c(c1)C(C(=O)OC)C(c1ccc(OC(C)=O)c(OC(C)=O)c1)O2 (stereo not given)

>  <growth, %>
23.1

$$$$

Exercise: // returns reported growth for input `Cc1[nH]c(N=Nc2ccccc2)nc1N=Nc1ccccc1`
Solution: 47.7
